target-or-system: Receptor-interacting serine/threonine-protein kinase 1 (Homo sapiens, UniProt Q13546)
Sequence (Q13546 whole entry): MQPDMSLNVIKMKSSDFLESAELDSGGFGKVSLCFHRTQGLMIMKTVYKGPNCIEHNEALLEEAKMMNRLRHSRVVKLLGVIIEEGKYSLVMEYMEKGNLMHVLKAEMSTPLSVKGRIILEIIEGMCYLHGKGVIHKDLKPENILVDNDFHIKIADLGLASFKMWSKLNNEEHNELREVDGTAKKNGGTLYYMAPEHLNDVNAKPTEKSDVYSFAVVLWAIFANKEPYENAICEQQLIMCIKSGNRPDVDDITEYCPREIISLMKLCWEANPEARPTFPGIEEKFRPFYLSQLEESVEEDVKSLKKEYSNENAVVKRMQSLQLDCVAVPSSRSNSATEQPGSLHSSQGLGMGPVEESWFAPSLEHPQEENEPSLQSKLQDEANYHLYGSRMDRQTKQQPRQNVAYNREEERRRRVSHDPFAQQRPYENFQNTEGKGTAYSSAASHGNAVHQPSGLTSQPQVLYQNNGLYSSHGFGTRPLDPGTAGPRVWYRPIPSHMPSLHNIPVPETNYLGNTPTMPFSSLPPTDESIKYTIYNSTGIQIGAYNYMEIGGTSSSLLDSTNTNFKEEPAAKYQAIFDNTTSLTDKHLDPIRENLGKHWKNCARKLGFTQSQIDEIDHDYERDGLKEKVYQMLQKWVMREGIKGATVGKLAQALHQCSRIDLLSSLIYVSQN
Listed here: items and their measured IC50.

| smiles-notation | IC50 |
| --- | --- |
| CN1C(=O)[C@H](NC(=O)c2cc(Oc3ccc(F)cc3F)ccn2)CCc2cccnc21 | > 3000 nM |
| CN1C(=O)[C@@H](NC(=O)c2nn(Cc3ccccc3C#N)cc2F)COc2cccnc21 | 0.1 to 1000 nM |
